Reported ratio to parent values follow for various variants
B1: H2-Kb / G2 (parent)
chain 1: GEQVEQRPPHLSVREGDSAVIICTYTDPNSYYFFWYKQEPGAGLQLLMKVFSSTEINEGQGFTVLLNKKDKQLSLNLTAAHPGDSAVYFCAVRTNQGGRALIFGTGTTVSVSP
chain 2: EAAVTQSPRSKVAVTGGKVTLSCHQTNNHDYMYWYRQDTGHGLRLIHYSYVADSTEKGDIPDGYKASRPSQENFSLILELASLSQTAVYFCASSGTDTEVFFGKGTRLTVV
chain 3: not shown
chain 4: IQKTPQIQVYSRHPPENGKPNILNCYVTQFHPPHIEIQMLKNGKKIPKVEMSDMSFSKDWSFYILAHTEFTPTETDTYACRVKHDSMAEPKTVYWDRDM
chain 5: SIINFEKL

Variants of: B1
METHOD: % of reporter cells activated (NFAT-GFP), raw; further: test concentration or dose not given here
CONDITION NOTES: with G2; scale: % of reporter cells activated
OBSERVED PROPERTY: ratio to parent

- MUTANT LABEL: "chain 5 E6T"
  OBSERVED PROPERTY: "ratio to parent"
  NUMBER: 1.73
- MUTANT LABEL: "chain 5 L8M"
  OBSERVED PROPERTY: "ratio to parent"
  NUMBER: 2.01
- MUTANT LABEL: "chain 5 F5C"
  OBSERVED PROPERTY: "ratio to parent"
  NUMBER: 1.4
- MUTANT LABEL: "chain 5 I2G"
  OBSERVED PROPERTY: "ratio to parent"
  NUMBER: 0.928
- MUTANT LABEL: "chain 5 S1P"
  OBSERVED PROPERTY: "ratio to parent"
  NUMBER: 1.42
- MUTANT LABEL: "chain 5 N4S"
  OBSERVED PROPERTY: "ratio to parent"
  NUMBER: 1.5
- MUTANT LABEL: "chain 5 N4G"
  OBSERVED PROPERTY: "ratio to parent"
  NUMBER: 0.976
- MUTANT LABEL: "chain 5 L8W"
  OBSERVED PROPERTY: "ratio to parent"
  NUMBER: 0.768
- MUTANT LABEL: "chain 5 I3H"
  OBSERVED PROPERTY: "ratio to parent"
  NUMBER: 1.18
- MUTANT LABEL: "chain 5 E6H"
  OBSERVED PROPERTY: "ratio to parent"
  NUMBER: 1.36
- MUTANT LABEL: "chain 5 S1V"
  OBSERVED PROPERTY: "ratio to parent"
  NUMBER: 0.976
- MUTANT LABEL: "chain 5 L8R"
  OBSERVED PROPERTY: "ratio to parent"
  NUMBER: 1.45
- MUTANT LABEL: "chain 5 I3Y"
  OBSERVED PROPERTY: "ratio to parent"
  NUMBER: 0.904
- MUTANT LABEL: "chain 5 I2L"
  OBSERVED PROPERTY: "ratio to parent"
  NUMBER: 1.25
- MUTANT LABEL: "chain 5 F5G"
  OBSERVED PROPERTY: "ratio to parent"
  NUMBER: 1.23
- MUTANT LABEL: "chain 5 F5E"
  OBSERVED PROPERTY: "ratio to parent"
  NUMBER: 1.34
- MUTANT LABEL: "chain 5 K7I"
  OBSERVED PROPERTY: "ratio to parent"
  NUMBER: 1.83
- MUTANT LABEL: "chain 5 E6Y"
  OBSERVED PROPERTY: "ratio to parent"
  NUMBER: 1.71
- MUTANT LABEL: "chain 5 F5R"
  OBSERVED PROPERTY: "ratio to parent"
  NUMBER: 0.864
- MUTANT LABEL: "chain 5 S1R"
  OBSERVED PROPERTY: "ratio to parent"
  NUMBER: 1.02
- MUTANT LABEL: "chain 5 N4P"
  OBSERVED PROPERTY: "ratio to parent"
  NUMBER: 1.34
- MUTANT LABEL: "chain 5 N4W"
  OBSERVED PROPERTY: "ratio to parent"
  NUMBER: 2.17
- MUTANT LABEL: "chain 5 I2W"
  OBSERVED PROPERTY: "ratio to parent"
  NUMBER: 1.18
- MUTANT LABEL: "chain 5 I2H"
  OBSERVED PROPERTY: "ratio to parent"
  NUMBER: 1.31
- MUTANT LABEL: "chain 5 I2D"
  OBSERVED PROPERTY: "ratio to parent"
  NUMBER: 1.58
- MUTANT LABEL: "chain 5 I3R"
  OBSERVED PROPERTY: "ratio to parent"
  NUMBER: 0.8
- MUTANT LABEL: "chain 5 N4A"
  OBSERVED PROPERTY: "ratio to parent"
  NUMBER: 1.13
- MUTANT LABEL: "chain 5 I3E"
  OBSERVED PROPERTY: "ratio to parent"
  NUMBER: 1.55
- MUTANT LABEL: "chain 5 S1D"
  OBSERVED PROPERTY: "ratio to parent"
  NUMBER: 1.62
- MUTANT LABEL: "chain 5 S1E"
  OBSERVED PROPERTY: "ratio to parent"
  NUMBER: 1.54
- MUTANT LABEL: "chain 5 F5A"
  OBSERVED PROPERTY: "ratio to parent"
  NUMBER: 1.38
- MUTANT LABEL: "chain 5 I3Q"
  OBSERVED PROPERTY: "ratio to parent"
  NUMBER: 1.03
- MUTANT LABEL: "chain 5 L8A"
  OBSERVED PROPERTY: "ratio to parent"
  NUMBER: 1.06
- MUTANT LABEL: "chain 5 N4T"
  OBSERVED PROPERTY: "ratio to parent"
  NUMBER: 0.904
- MUTANT LABEL: "chain 5 K7A"
  OBSERVED PROPERTY: "ratio to parent"
  NUMBER: 1.58
- MUTANT LABEL: "chain 5 K7Q"
  OBSERVED PROPERTY: "ratio to parent"
  NUMBER: 1.12
- MUTANT LABEL: "chain 5 K7T"
  OBSERVED PROPERTY: "ratio to parent"
  NUMBER: 1.27
- MUTANT LABEL: "chain 5 I3M"
  OBSERVED PROPERTY: "ratio to parent"
  NUMBER: 1.88
- MUTANT LABEL: "chain 5 L8K"
  OBSERVED PROPERTY: "ratio to parent"
  NUMBER: 1.4
- MUTANT LABEL: "chain 5 F5D"
  OBSERVED PROPERTY: "ratio to parent"
  NUMBER: 1.77
- MUTANT LABEL: "chain 5 F5W"
  OBSERVED PROPERTY: "ratio to parent"
  NUMBER: 1.15
- MUTANT LABEL: "chain 5 I2F"
  OBSERVED PROPERTY: "ratio to parent"
  NUMBER: 1.32
- MUTANT LABEL: "chain 5 F5P"
  OBSERVED PROPERTY: "ratio to parent"
  NUMBER: 1.42
- MUTANT LABEL: "chain 5 F5I"
  OBSERVED PROPERTY: "ratio to parent"
  NUMBER: 1.06
- MUTANT LABEL: "chain 5 I3L"
  OBSERVED PROPERTY: "ratio to parent"
  NUMBER: 1.34
- MUTANT LABEL: "chain 5 I2R"
  OBSERVED PROPERTY: "ratio to parent"
  NUMBER: 1.01
